# System: human SMAD7 mRNA
# TEST_DETAILS: Antisense inhibition of human SMAD7 mRNA expression in Hep3B cells by 3-10-3 cEt gapmers, 10,000 nM, electroporation (Example 2)
# Type: cell-based
# MEASUREMENT_SETUP: SMAD7 mRNA, Hep3B cells, electroporation with 10,000 nM antisense oligonucleotide, approximately 24 hours, primer probe set RTS5062, relative to untreated control cells
Strand notation (5' to 3'): a small letter for the sugar, then the base; units joined by * are phosphorothioate-linked, units joined directly phosphodiester-linked; [ ] holds rarer units or linkages, { } end groups; capitals alone tell only the bases. k = constrained ethyl (cEt); [5mC] = 5-methylcytosine; d = 2'-deoxy (DNA)
ATTRIBUTE_MEASURED: % Inhibition (%)

| SUBSTANCE | SUBJECT_OF_TEST | ATTRIBUTE_MEASURED | UNIT_TAG | MEASURED |
| --- | --- | --- | --- | --- |
| 829877 (antisense kT*k[5mC]*k[5mC]*dG*dG*dG*dT*dT*dG*dT*d[5mC]*d[5mC]*dA*kG*kT*kG) [compound 829877] | human SMAD7 mRNA | % Inhibition | % | 42 |
| 829974 (kA*kA*kA*dA*dG*dA*dG*dG*d[5mC]*d[5mC]*dG*d[5mC]*d[5mC]*kT*kG*kG; antisense) [compound 829974] | human SMAD7 mRNA | % Inhibition | % | 27 |
| 829935 (k[5mC]*kT*kA*dG*dG*dT*dG*dA*dT*dA*dA*d[5mC]*dA*k[5mC]*k[5mC]*k[5mC]; antisense) [compound 829935] | human SMAD7 mRNA | % Inhibition | % | 0 |
| 829880 (antisense kT*k[5mC]*k[5mC]*dT*dG*dG*dA*dG*dT*d[5mC]*d[5mC]*dG*dG*kG*kT*kT) [compound 829880] | human SMAD7 mRNA | % Inhibition | % | 32 |
| 830013 (antisense kG*kT*kG*d[5mC]*d[5mC]*dA*dG*dT*d[5mC]*dT*d[5mC]*dA*dA*kA*kT*kG) [compound 830013] | human SMAD7 mRNA | % Inhibition | % | 55 |
| 829894 (antisense kG*k[5mC]*kT*dG*dA*dT*d[5mC]*dT*dG*d[5mC]*dA*d[5mC]*dG*kG*kT*kA) [compound 829894] | human SMAD7 mRNA | % Inhibition | % | 41 |

* * *

# TEST_DETAILS: Hematology assays after subcutaneous administration in CD-1 mice (Example 6)
# Type: in vivo
# MEASUREMENT_SETUP: 50 mg/kg subcutaneous twice weekly for 7 weeks
Strand notation (5' to 3'): a small letter for the sugar, then the base; units joined by * are phosphorothioate-linked, units joined directly phosphodiester-linked; [ ] holds rarer units or linkages, { } end groups; capitals alone tell only the bases. k = constrained ethyl (cEt); [5mC] = 5-methylcytosine; d = 2'-deoxy (DNA)
Parameter Neutrophils: see the listing below.
ATTRIBUTE_MEASURED: Neutrophils (%)

| SUBSTANCE | MEASURED |
| --- | --- |
| 829994 (GGAGGCAGGGCCGCGA; 3-10-3 cEt gapmer, further chemistry not given here) [compound 829994] | 16.4 |
| 799144 (antisense kT*kT*kG*dG*dG*dT*dT*dA*dT*dG*dA*d[5mC]*dG*kG*kA*k[5mC]) [compound 799144] | 11.4 |
| 830121 (AGAATCAAGCCCTGGC; 3-10-3 cEt gapmer, further chemistry not given here) [compound 830121] | 15.8 |
| 790615 (CCAATGAGAATGCTTC; 3-10-3 cEt gapmer, further chemistry not given here) [compound 790615] | 9.7 |
| 830027 (antisense kA*kA*k[5mC]*d[5mC]*dA*dT*dT*dT*dA*dT*d[5mC]*dT*dG*kG*kT*kG) [compound 830027] | 25.6 |
| 830025 (antisense TTTGTAAATCGAAAGC; 3-10-3 cEt gapmer, further chemistry not given here) [compound 830025] | 9.3 |
| 798781 (CGTAAGATTCACAGCA; 3-10-3 cEt gapmer, further chemistry not given here) [compound 798781] | 18.8 |

* * *

Parameter % inhibition of SMAD7 mRNA expression: see the listing below.
# Tested on: human SMAD7 mRNA
# TEST_DETAILS: Dose-dependent inhibition of human SMAD7 mRNA expression in Hep3B cells (Example 3, Study 1 and 2)
# Format: cell-based
# MEASUREMENT_SETUP: 1250.0 nM, electroporation, approximately 16 hours, Study 1
Strand notation (5' to 3'): a small letter for the sugar, then the base; units joined by * are phosphorothioate-linked, units joined directly phosphodiester-linked; [ ] holds rarer units or linkages, { } end groups; capitals alone tell only the bases. e = 2'-O-(2-methoxyethyl) (MOE); [5mC] = 5-methylcytosine; d = 2'-deoxy (DNA)

| SUBSTANCE | SUBJECT_OF_TEST | % inhibition of SMAD7 mRNA expression, % |
| --- | --- | --- |
| 771399 (antisense eG*e[5mC]*e[5mC]*e[5mC]*eG*dG*dG*d[5mC]*dA*dG*dG*dA*dG*d[5mC]*dG*eG*e[5mC]*eG*eG*e[5mC]) [compound 771399] | human SMAD7 mRNA | 6 |
| 771574 (antisense e[5mC]*eG*e[5mC]*eT*eT*dG*dG*dG*dA*d[5mC]*dT*dG*d[5mC]*dA*dA*eA*e[5mC]*e[5mC]*eT*e[5mC]) [compound 771574] | human SMAD7 mRNA | 5 |
| 771556 (antisense e[5mC]*e[5mC]*e[5mC]*eT*eT*d[5mC]*dA*dT*dA*d[5mC]*dA*d[5mC]*dT*dG*dT*eG*eT*eT*eT*eG) [compound 771556] | human SMAD7 mRNA | 0 |

* * *

Parameter BUN: see the listing below.
# TEST_DETAILS: Plasma chemistry markers after subcutaneous administration in CD-1 mice (Example 6)
# Format: in vivo
# MEASUREMENT_SETUP: CD-1 mice plasma at day 46; 50 mg/kg subcutaneously twice a week for 7 weeks
Strand notation (5' to 3'): a small letter for the sugar, then the base; units joined by * are phosphorothioate-linked, units joined directly phosphodiester-linked; [ ] holds rarer units or linkages, { } end groups; capitals alone tell only the bases. k = constrained ethyl (cEt); [5mC] = 5-methylcytosine; d = 2'-deoxy (DNA)
ATTRIBUTE_MEASURED: BUN (mg/dL)

| SUBSTANCE | UNIT_TAG | MEASURED |
| --- | --- | --- |
| 830121 (AGAATCAAGCCCTGGC; 3-10-3 cEt gapmer, further chemistry not given here) [compound 830121] | mg/dL | 21 |
| 790615 (CCAATGAGAATGCTTC; 3-10-3 cEt gapmer, further chemistry not given here) [compound 790615] | mg/dL | 22 |
| 798781 (CGTAAGATTCACAGCA; 3-10-3 cEt gapmer, further chemistry not given here) [compound 798781] | mg/dL | 26 |
| 799144 (antisense kT*kT*kG*dG*dG*dT*dT*dA*dT*dG*dA*d[5mC]*dG*kG*kA*k[5mC]) [compound 799144] | mg/dL | 21 |

* * *

# System: human SMAD7 mRNA
# TEST_DETAILS: Antisense inhibition of human SMAD7 mRNA expression in Hep3B cells by 5-10-5 MOE gapmers, single concentration, electroporation, RT-PCR (Example 1, Study 1 and 2)
# Assay type: cell-based
# MEASUREMENT_SETUP: Study 2, electroporation with 15,000 nM antisense oligonucleotide, 5-10-5 MOE gapmers targeting SEQ ID NO: 1 and 2
Strand notation (5' to 3'): a small letter for the sugar, then the base; units joined by * are phosphorothioate-linked, units joined directly phosphodiester-linked; [ ] holds rarer units or linkages, { } end groups; capitals alone tell only the bases. e = 2'-O-(2-methoxyethyl) (MOE); [5mC] = 5-methylcytosine; d = 2'-deoxy (DNA)

| SUBSTANCE | % inhibition of SMAD7 mRNA expression / % |
| --- | --- |
| 771652 (antisense eA*eT*eT*eG*eA*dG*d[5mC]*dT*dA*dA*dG*dA*dA*d[5mC]*dA*eG*eT*eG*eT*e[5mC]) [compound 771652] | 0 |
| 771678 (antisense eT*eT*eA*eT*eT*dT*dT*dT*d[5mC]*dT*dT*dG*dT*dT*dT*eA*eT*eA*e[5mC]*eA) [compound 771678] | 0 |
| 771655 (antisense eA*eG*eT*e[5mC]*eT*dA*dA*dA*d[5mC]*dA*dT*dG*d[5mC]*dT*d[5mC]*eA*eT*eT*eG*eA) [compound 771655] | 14 |

* * *

# System: human SMAD7 mRNA
# TEST_DETAILS: Antisense inhibition of human SMAD7 mRNA expression in Hep3B cells by 3-10-3 cEt gapmers, 10,000 nM, electroporation (Example 2)
# Format: cell-based
# MEASUREMENT_SETUP: SMAD7 mRNA, Hep3B cells, electroporation with 10,000 nM antisense oligonucleotide, approximately 24 hours, primer probe set RTS5062, relative to untreated control cells
Strand notation (5' to 3'): a small letter for the sugar, then the base; units joined by * are phosphorothioate-linked, units joined directly phosphodiester-linked; [ ] holds rarer units or linkages, { } end groups; capitals alone tell only the bases. k = constrained ethyl (cEt); [5mC] = 5-methylcytosine; d = 2'-deoxy (DNA)

| SUBSTANCE | % Inhibition |
| --- | --- |
| 829856 (antisense kA*k[5mC]*k[5mC]*dA*dG*d[5mC]*dT*dG*dA*d[5mC]*dT*d[5mC]*dT*kT*kG*kT) [compound 829856] | 41% |
| 829881 (antisense k[5mC]*kG*kT*d[5mC]*d[5mC]*dT*dG*dG*dA*dG*dT*d[5mC]*d[5mC]*kG*kG*kG) [compound 829881] | 39% |
| 829963 (k[5mC]*k[5mC]*kT*dA*dG*dT*dT*d[5mC]*dG*d[5mC]*dA*dG*dA*kG*kT*k[5mC]; antisense) [compound 829963] | 46% |
| 829837 (k[5mC]*k[5mC]*kA*dG*dT*dA*dT*dG*d[5mC]*d[5mC]*dA*d[5mC]*d[5mC]*kA*k[5mC]*kG; antisense) [compound 829837] | 16% |
| 829934 (kT*kA*kG*dG*dT*dG*dA*dT*dA*dA*d[5mC]*dA*d[5mC]*k[5mC]*k[5mC]*kA; antisense) [compound 829934] | 26% |
| 829994 (GGAGGCAGGGCCGCGA; 3-10-3 cEt gapmer, further chemistry not given here) [compound 829994] | 68% |

Where do the numbers come from? From patent US10517889B2.
